- experimental.target: Muscarinic acetylcholine receptor M2 (Homo sapiens, UniProt P08172)
- assay.overview: Displacement of [3H]AF-DX 384 from recombinant human M2 receptor after 60 mins by scintillation counting analysis
assay.metric: IC50

>>> obs_value("O=C(Nc1ccc(OC(F)F)nc1)NC1CCN(c2ncnc3c2nc(-c2ccccc2Cl)n3-c2ccc(Cl)cc2)CC1")
"> 10 µM"

* * *

- experimental.target: 5-hydroxytryptamine receptor 1B (Homo sapiens, UniProt P28222)
- Sequence (P28222 whole entry): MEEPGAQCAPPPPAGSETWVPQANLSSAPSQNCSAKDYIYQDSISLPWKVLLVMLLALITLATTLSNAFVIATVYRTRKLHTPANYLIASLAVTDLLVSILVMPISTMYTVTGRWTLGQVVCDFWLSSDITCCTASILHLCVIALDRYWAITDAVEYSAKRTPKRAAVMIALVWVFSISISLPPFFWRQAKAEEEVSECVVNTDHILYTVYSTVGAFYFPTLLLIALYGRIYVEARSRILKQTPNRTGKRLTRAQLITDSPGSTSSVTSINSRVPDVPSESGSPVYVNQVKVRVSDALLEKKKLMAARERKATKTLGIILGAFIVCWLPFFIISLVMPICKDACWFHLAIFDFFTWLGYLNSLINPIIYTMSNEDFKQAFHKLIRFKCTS
- assay.overview: Displacement of [3H]GR125743 from recombinant human 5HT1B after 60 mins by scintillation counting analysis
assay.metric: EC50

>>> obs_value("O=C(Nc1ccc(OC(F)F)nc1)NC1CCN(c2ncnc3c2nc(-c2ccccc2Cl)n3-c2ccc(Cl)cc2)CC1")
"> 10 µM"

* * *

- experimental.target: UniProt P08172
- Sequence (P08172 whole entry): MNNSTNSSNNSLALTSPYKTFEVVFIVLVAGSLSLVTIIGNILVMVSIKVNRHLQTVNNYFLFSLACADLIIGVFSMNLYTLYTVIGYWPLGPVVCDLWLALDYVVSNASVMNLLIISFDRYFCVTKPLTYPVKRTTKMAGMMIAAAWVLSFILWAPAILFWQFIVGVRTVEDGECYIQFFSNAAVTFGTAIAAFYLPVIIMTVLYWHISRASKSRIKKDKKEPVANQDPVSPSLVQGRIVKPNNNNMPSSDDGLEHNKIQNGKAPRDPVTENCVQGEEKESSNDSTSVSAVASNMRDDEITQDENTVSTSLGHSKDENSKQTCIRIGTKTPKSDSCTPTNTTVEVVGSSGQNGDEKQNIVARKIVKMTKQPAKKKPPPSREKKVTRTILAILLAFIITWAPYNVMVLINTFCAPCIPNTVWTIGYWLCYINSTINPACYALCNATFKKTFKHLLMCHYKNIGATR
- assay.overview: Displacement of [3H]AF-DX 384 from recombinant human M2 receptor after 60 mins by scintillation counting analysis
assay.metric: EC50

>>> obs_value("O=C(Nc1ccc(OC(F)F)nc1)NC1CCN(c2ncnc3c2nc(-c2ccccc2Cl)n3-c2ccc(Cl)cc2)CC1")
"> 10 µM"

* * *

- experimental.target: Alpha-1A adrenergic receptor (Homo sapiens)
- Sequence (P35348 whole entry): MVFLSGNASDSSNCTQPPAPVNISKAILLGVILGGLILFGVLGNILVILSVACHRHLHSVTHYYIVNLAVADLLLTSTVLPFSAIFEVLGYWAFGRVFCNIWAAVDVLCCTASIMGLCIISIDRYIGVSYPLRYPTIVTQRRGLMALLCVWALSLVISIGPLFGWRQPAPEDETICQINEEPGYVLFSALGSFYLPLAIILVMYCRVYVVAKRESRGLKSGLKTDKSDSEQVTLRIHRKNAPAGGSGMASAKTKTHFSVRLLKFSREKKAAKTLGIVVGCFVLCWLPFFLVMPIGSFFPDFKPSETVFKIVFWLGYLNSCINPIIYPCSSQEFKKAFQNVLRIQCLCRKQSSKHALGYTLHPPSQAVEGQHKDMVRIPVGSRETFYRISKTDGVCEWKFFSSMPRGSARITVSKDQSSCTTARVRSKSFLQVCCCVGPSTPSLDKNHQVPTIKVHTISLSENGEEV
- assay.overview: Displacement of [3H]prazosin from recombinant human alpha 1A adrenoceptor after 60 mins by scintillation counting analysis
assay.metric: IC50

>>> obs_value("O=C(Nc1ccc(OC(F)F)nc1)NC1CCN(c2ncnc3c2nc(-c2ccccc2Cl)n3-c2ccc(Cl)cc2)CC1")
"> 10 µM"

* * *

- experimental.target: 5-hydroxytryptamine receptor 2A (Homo sapiens, UniProt P28223)
- Sequence (P28223 whole entry): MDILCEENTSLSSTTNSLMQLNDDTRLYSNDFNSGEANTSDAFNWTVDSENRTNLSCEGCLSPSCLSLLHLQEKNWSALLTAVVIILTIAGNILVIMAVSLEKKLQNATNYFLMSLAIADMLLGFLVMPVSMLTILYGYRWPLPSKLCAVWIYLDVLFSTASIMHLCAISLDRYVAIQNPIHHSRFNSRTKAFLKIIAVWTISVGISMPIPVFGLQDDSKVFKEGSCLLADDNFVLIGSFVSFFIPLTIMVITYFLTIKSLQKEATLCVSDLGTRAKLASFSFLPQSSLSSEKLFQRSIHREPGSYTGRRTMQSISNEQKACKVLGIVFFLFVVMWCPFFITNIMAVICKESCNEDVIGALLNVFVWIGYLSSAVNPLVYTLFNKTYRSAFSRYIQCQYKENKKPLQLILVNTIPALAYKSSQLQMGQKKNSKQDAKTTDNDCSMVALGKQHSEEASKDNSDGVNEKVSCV
- assay.overview: Displacement of [125I](+/-)DOI from recombinant human 5HT2A receptor after 60 mins by scintillation counting analysis
pIC50: −log10 of the molar value.
assay.metric: pIC50

>>> obs_value("O=C(Nc1ccc(OC(F)F)nc1)NC1CCN(c2ncnc3c2nc(-c2ccccc2Cl)n3-c2ccc(Cl)cc2)CC1")
"< 5.00"

* * *

- experimental.target: Vasopressin V1a receptor (Homo sapiens, UniProt P37288)
- Sequence (P37288 whole entry): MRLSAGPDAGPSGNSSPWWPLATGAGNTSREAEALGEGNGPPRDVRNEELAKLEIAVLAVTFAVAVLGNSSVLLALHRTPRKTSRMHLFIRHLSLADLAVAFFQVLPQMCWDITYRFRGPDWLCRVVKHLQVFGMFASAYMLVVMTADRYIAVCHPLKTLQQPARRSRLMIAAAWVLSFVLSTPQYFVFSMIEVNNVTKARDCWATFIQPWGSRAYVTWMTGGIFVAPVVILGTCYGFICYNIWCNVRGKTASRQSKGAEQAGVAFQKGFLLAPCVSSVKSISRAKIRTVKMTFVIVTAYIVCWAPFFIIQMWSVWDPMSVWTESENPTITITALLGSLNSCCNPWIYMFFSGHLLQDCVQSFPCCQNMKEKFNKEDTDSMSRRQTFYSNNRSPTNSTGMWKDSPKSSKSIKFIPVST
- assay.overview: Displacement of [3H]AVP from recombinant human V1A receptor after 60 mins by scintillation counting analysis
assay.metric: EC50

>>> obs_value("O=C(Nc1ccc(OC(F)F)nc1)NC1CCN(c2ncnc3c2nc(-c2ccccc2Cl)n3-c2ccc(Cl)cc2)CC1")
"> 10 µM"

* * *

- experimental.target: 5-hydroxytryptamine receptor 3A (Homo sapiens, UniProt P46098)
- Sequence (P46098 whole entry): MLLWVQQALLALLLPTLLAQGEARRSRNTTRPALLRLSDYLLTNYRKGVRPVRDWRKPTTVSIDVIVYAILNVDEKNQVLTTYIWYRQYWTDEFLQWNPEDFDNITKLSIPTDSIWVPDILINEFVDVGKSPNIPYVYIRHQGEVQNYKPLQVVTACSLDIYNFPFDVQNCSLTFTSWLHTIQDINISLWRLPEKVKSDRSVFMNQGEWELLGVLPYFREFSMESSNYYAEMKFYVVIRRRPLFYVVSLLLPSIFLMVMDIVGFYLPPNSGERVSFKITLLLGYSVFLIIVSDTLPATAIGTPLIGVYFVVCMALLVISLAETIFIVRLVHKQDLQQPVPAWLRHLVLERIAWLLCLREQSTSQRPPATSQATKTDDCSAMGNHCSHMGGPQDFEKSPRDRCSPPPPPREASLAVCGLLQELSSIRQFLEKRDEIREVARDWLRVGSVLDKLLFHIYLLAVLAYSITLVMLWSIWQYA
- assay.overview: Displacement of [3H]BRL43694 from recombinant human 5HT3 receptor after 120 mins by scintillation counting analysis
assay.metric: EC50

>>> obs_value("O=C(Nc1ccc(OC(F)F)nc1)NC1CCN(c2ncnc3c2nc(-c2ccccc2Cl)n3-c2ccc(Cl)cc2)CC1")
"> 10 µM"

* * *

- experimental.target: Muscarinic acetylcholine receptor M1 (Homo sapiens, UniProt P11229)
- assay.overview: Displacement of [3H]pirenzepine from recombinant human M1 receptor after 60 mins by scintillation counting analysis
pIC50: −log10 of the molar value.
assay.metric: pIC50

>>> obs_value("O=C(Nc1ccc(OC(F)F)nc1)NC1CCN(c2ncnc3c2nc(-c2ccccc2Cl)n3-c2ccc(Cl)cc2)CC1")
"< 5.00"

* * *

- experimental.target: Mu-type opioid receptor (Homo sapiens)
- Sequence (P35372 whole entry): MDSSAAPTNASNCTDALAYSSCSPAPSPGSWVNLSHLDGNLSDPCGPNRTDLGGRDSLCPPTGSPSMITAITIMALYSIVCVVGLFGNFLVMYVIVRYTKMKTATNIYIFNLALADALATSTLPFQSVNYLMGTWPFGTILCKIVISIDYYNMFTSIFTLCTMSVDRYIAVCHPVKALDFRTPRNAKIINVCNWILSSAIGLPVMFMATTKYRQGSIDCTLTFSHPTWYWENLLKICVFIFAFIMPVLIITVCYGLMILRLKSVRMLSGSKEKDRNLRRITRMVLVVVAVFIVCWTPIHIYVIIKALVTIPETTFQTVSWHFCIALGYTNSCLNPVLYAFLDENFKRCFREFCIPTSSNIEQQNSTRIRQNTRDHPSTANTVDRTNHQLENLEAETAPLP
- assay.overview: Displacement of [3H]DAMGO from recombinant human MOR after 120 mins by scintillation counting analysis
pEC50: −log10 of the molar value.
assay.metric: pEC50

>>> obs_value("O=C(Nc1ccc(OC(F)F)nc1)NC1CCN(c2ncnc3c2nc(-c2ccccc2Cl)n3-c2ccc(Cl)cc2)CC1")
"< 5.00"

* * *

For reference, Ki measured on Cannabinoid receptor 2 (Homo sapiens, UniProt P34972):
assay.metric: Ki (nM)

>>> obs_value("CC1(NC(=O)NCc2ccccc2F)CCN(c2ncnc3c2nc(-c2ccccc2Cl)n3-c2ccc(Cl)cc2)CC1")
1100
>>> obs_value("O=C(NC1CCN(c2ncnc3c2nc(-c2ccccc2Cl)n3-c2ccc(Cl)cc2)CC1)N1CCCCC1")
400
>>> obs_value("CCCN(CC(F)(F)F)C(=O)NC1CCN(c2ncnc3c2nc(-c2ccccc2Cl)n3-c2ccc(Cl)cc2)CC1")
2800
>>> obs_value("O=C(NCC1CCCCC1)NC1CCN(c2ncnc3c2nc(-c2ccccc2Cl)n3-c2ccc(Cl)cc2)CC1")
7600

* * *

- experimental.target: Prostaglandin G/H synthase 2 (Homo sapiens)
- Sequence (P35354 whole entry): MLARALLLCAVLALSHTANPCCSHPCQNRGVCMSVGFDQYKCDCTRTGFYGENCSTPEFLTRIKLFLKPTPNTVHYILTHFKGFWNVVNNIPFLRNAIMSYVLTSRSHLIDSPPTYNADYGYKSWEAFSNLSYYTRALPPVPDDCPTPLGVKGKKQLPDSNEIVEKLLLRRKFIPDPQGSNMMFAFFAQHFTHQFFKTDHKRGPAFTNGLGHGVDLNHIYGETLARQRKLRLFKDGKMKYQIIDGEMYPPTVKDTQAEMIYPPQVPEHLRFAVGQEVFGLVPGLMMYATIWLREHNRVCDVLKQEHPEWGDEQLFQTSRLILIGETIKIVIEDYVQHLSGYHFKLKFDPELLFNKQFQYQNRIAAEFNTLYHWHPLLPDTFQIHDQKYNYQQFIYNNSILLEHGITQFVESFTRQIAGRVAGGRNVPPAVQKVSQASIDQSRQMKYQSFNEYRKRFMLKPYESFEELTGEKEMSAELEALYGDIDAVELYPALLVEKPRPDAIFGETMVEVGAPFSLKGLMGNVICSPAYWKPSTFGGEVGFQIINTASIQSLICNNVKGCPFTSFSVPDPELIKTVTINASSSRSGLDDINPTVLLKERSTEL
- assay.overview: Activity at human recombinant COX2 using arachidonic acid as substrate measured after 5 mins by ADHP reagent based fluorescence assay
assay.metric: EC50

>>> obs_value("O=C(Nc1ccc(OC(F)F)nc1)NC1CCN(c2ncnc3c2nc(-c2ccccc2Cl)n3-c2ccc(Cl)cc2)CC1")
"> 10 µM"

* * *

- assay.overview: Cmax in C57BL6 mouse plasma at 0.3 mg/kg, po measured at 1 hr post dose by LC-MS/MS analysis
- Assay type: ADME, organism-based
- Set-up: dose 0.3 mg/kg, route oral
assay.metric: Cmax (ng/mL)

>>> obs_value("O=C(Nc1ccc(F)cc1F)NC1CCN(c2ncnc3c2nc(-c2ccccc2Cl)n3-c2ccc(Cl)cc2)CC1")
1230

* * *

- experimental.target: Androgen receptor (Homo sapiens, UniProt P10275)
- Sequence (P10275 whole entry): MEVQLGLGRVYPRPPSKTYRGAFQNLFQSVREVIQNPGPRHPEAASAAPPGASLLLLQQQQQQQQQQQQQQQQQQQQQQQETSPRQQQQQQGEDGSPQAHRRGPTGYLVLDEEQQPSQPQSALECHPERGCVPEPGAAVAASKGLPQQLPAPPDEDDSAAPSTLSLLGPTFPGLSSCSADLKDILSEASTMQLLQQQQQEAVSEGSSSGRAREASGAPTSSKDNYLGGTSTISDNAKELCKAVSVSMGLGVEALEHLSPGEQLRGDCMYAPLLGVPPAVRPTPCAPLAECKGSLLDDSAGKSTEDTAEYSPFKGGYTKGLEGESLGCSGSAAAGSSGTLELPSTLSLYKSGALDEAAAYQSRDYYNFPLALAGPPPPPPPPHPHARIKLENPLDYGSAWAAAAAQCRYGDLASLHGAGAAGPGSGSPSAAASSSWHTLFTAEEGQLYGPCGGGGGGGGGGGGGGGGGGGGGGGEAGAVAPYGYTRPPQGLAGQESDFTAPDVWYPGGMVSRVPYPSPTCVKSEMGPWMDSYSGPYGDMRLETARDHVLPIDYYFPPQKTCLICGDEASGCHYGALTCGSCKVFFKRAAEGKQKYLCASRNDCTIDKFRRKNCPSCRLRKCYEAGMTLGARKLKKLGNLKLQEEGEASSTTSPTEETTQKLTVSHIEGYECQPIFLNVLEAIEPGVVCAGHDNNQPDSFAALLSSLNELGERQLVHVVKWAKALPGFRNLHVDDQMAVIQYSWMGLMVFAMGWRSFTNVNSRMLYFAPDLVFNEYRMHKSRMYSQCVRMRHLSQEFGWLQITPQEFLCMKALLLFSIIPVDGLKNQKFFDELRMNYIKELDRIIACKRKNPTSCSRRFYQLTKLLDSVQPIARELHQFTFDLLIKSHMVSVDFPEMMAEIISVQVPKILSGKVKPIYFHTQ
- assay.overview: Displacement of [3H]methyltrienolone from recombinant human AR after 1440 mins by scintillation counting analysis
assay.metric: IC50

>>> obs_value("O=C(Nc1ccc(OC(F)F)nc1)NC1CCN(c2ncnc3c2nc(-c2ccccc2Cl)n3-c2ccc(Cl)cc2)CC1")
"> 10 µM"

* * *

- experimental.target: Alpha-2A adrenergic receptor (Homo sapiens, UniProt P08913)
- Sequence (P08913 whole entry): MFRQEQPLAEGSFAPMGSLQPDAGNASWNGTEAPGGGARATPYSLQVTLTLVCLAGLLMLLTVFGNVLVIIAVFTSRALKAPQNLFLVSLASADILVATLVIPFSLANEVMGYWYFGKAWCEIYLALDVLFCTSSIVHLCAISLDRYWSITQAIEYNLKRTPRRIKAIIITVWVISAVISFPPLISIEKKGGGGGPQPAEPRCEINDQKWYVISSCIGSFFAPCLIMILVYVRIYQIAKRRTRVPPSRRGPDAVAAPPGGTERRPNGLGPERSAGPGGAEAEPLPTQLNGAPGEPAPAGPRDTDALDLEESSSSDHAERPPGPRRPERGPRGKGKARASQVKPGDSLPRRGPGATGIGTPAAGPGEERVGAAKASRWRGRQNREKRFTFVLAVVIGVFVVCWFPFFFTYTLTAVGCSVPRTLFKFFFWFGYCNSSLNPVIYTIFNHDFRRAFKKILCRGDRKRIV
- assay.overview: Displacement of [3H]RX 821002 from recombinant human alpha 2A adrenoceptor after 60 mins by scintillation counting analysis
assay.metric: IC50

>>> obs_value("O=C(Nc1ccc(OC(F)F)nc1)NC1CCN(c2ncnc3c2nc(-c2ccccc2Cl)n3-c2ccc(Cl)cc2)CC1")
"> 10 µM"

* * *

- experimental.target: UniProtKB P35372
- assay.overview: Displacement of [3H]DAMGO from recombinant human MOR after 120 mins by scintillation counting analysis
pIC50: −log10 of the molar value.
assay.metric: pIC50

>>> obs_value("O=C(Nc1ccc(OC(F)F)nc1)NC1CCN(c2ncnc3c2nc(-c2ccccc2Cl)n3-c2ccc(Cl)cc2)CC1")
"< 5.00"

* * *

- experimental.target: Muscarinic acetylcholine receptor M1 (Homo sapiens)
- Sequence (P11229 whole entry): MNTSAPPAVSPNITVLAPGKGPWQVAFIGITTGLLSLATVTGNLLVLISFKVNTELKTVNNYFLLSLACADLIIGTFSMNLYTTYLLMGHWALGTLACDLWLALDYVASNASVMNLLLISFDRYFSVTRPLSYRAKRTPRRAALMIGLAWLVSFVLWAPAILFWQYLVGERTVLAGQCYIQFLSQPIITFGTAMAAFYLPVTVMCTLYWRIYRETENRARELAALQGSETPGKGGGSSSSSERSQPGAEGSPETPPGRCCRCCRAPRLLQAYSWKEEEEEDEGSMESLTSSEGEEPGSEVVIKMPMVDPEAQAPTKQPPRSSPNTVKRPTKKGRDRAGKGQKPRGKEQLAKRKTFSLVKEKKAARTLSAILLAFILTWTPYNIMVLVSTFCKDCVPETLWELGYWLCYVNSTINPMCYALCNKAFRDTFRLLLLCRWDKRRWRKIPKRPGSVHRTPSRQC
- assay.overview: Displacement of [3H]pirenzepine from recombinant human M1 receptor after 60 mins by scintillation counting analysis
pEC50: −log10 of the molar value.
assay.metric: pEC50

>>> obs_value("O=C(Nc1ccc(OC(F)F)nc1)NC1CCN(c2ncnc3c2nc(-c2ccccc2Cl)n3-c2ccc(Cl)cc2)CC1")
"< 5.00"

The measured values listed here are drawn from ChEMBL document CHEMBL4364254.
